assay: inhibition of NOD2-driven NF-kB reporter – cell-based, luminescence, uHTS, HEK293 (AID 1566); settings: HEK293 NOD2/NF-kB luciferase reporter, at 4 µM, active compounds read high
Out of some 290,000 compounds screened, about 1,800 (0.62%) were called active. This excerpt belongs to a sample that is enriched for actives.
Kindly supply the reported inhibition values for the records listed here.
Answer format: numeric, % implied, no suffix.

### Prompt Dear colleague, I am looking for the recorded inhibition of the following molecule: `O=C(Nc1ccc(N2CCN(C(=O)c3ccccc3)CC2)cc1)c1ccc2c(c1)OCCO2`
### Response 38.7

### Prompt // inhibition lookup, key: `COC(=O)CCn1nnc(-c2cccs2)n1`
### Response 6.8

### Prompt Which value of inhibition has been reported for `Cc1cc(/C=c2/sc3nc4ccccc4n3c2=O)c(C)n1-c1ccccn1` in the records?
### Response 3.6

### Prompt Tell me the measured inhibition of Cc1nc2scc(C)n2c(=O)c1S(=O)(=O)NC(C)c1ccccc1 (configuration not stated) , please.
### Response 20.2

### Prompt Any idea what inhibition was measured for O=C(CN1CCOCC1)N1CCc2ccccc2C(c2ccccc2)C1 (configuration not stated) ?
### Response 17

### Prompt Fill in: inhibition of `O=C(CSc1nc2ccccc2[nH]1)Nc1cccc(S(=O)(=O)N2CCOCC2)c1` is ___
### Response 24.9

### Prompt Quick one: inhibition for `CCN(CC)S(=O)(=O)c1cc(NC(=O)[C@@H](NC(N)=O)C(C)C)ccc1C` ?
### Response 6.6
